System: LNCaP xenografts
Assay: Ex vivo biodistribution and blocking studies in mice bearing LNCaP xenografts
Conditions: 1 h blocked (coinjection of DCFPyL 0.5 mg)
Given measured kidney uptake, output Yes if it is greater than or equal to 2 %ID/g and No if not.

// known answers, use as guide
Molecule	Assigned Class
O=C(O)CC[C@H](NC(=O)N[C@@H](CCCCNC(=O)c1ccc(Cn2cc(C[n+]3ccc([B-](F)(F)F)cc3)nn2)nc1)C(=O)O)C(=O)O [^18F-4]	No
C[N+](C)(Cc1cn(Cc2ccc(C(=O)NCCCC[C@H](NC(=O)N[C@@H](CCC(=O)O)C(=O)O)C(=O)O)cc2)nn1)C[B-](F)(F)F [^18F-2]	Yes
C[N+](C)(Cc1cn(CC(=O)N[C@@H](CCC(=O)O)C(=O)NCCCC[C@H](NC(=O)[C@H](CCC(=O)O)NC(=O)Cn2cc(C[N+](C)(C)C[B-](F)(F)F)nn2)C(=O)NC[C@H]2CC[C@H](C(=O)N[C@@H](Cc3ccc4ccccc4c3)C(=O)NCCCC[C@H](NC(=O)N[C@@H](CCC(=O)O)C(=O)O)C(=O)O)CC2)nn1)C[B-](F)(F)F [^18F-8]	Yes
C[N+](C)(Cc1cn(Cc2ccc(C(=O)NCCCC[C@H](NC(=O)N[C@@H](CCC(=O)O)C(=O)O)C(=O)O)cn2)nn1)C[B-](F)(F)F [^18F-3]	Yes

# evaluate next
Prompt line: Decide: is the reported value of kidney uptake for C[N+](C)(Cc1ccc(C(=O)NCCCC[C@H](NC(=O)N[C@@H](CCC(=O)O)C(=O)O)C(=O)O)cc1)C[B-](F)(F)F [^18F-1] equal to or greater than 2 %ID/g?
Response line: Yes
